Test: Metabolic stability in mouse liver microsomes assessed as parent compound remaining measured after 30 mins by LC-MS/MS analysis
Format: ADME, Microsome
Conditions: read-out: Stability
measurement_label: remaining at 0.5 h (%)
// units = %; emit number, no label

>>> df
                   structure_as_smiles   measurement_label  endpoint_value
0  C=CC(=O)Nc1ccc(C)c(Oc2ccc(Cl)cc2)c1  remaining at 0.5 h             9.7

Ask: Hello, please tell me recorded remaining at 0.5 h for this one: C=CC(=O)N1CCc2ccc(-c3ccc(C(F)(F)F)cc3)cc2C1
Result: 62.7

Ask: Read off the recorded remaining at 0.5 h for C=C(F)C(=O)N1CCc2ccc(-c3ccc(C(F)(F)F)cc3)cc2C1
Result: 85.1

====

Catalogue of half-life values
Experiment: Half-life in mouse at 10 mg/kg, po measured after 24 hrs by LC-MS/MS analysis
Format: ADME, organism-based
Settings: in vivo
Numbers only; they are read as min.

                        structure_as_smiles  endpoint_value
0  C=CC(=O)N1CCc2ccc(-c3ccc(C(F)(F)F)cc3)cc2C1             184

Please find the next compound below.
Ask: Entry C=C(F)C(=O)N1CCc2ccc(-c3ccc(C(F)(F)F)cc3)cc2C1 needs its half-life filled in; supply it.
Result: 337
